Value source: paper PMC3032042

system: rSULT1A1-PAP complex (Rattus norvegicus)
Sequence (P17988 whole entry, one chain of several): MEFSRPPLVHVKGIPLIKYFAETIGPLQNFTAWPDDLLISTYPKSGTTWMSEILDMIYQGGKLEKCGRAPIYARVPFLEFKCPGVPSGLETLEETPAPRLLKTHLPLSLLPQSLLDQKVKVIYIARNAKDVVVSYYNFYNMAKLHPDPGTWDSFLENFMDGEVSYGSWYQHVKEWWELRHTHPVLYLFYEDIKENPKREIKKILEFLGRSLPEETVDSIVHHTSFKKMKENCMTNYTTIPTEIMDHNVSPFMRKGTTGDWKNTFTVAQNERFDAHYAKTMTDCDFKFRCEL
protocolText: Kd of OHPCBs with the rSULT1A1-PAP complex by displacement of ANS
Assay type: binding
conditionsUsed: read-out: Kd values for OHPCBs with rSULT1A1, With 0.27 mM PAP, GSSG, enzyme pretreated with 1 mM GSSG, pH 7.0, 37 °C
pKd: −log10 of the molar value.
Measured pKd of individual entries
measuredAttribute: pKd

compound	measuredAttribute	readoutNumber
Oc1c(Cl)cc(-c2ccccc2)cc1Cl [4-OH PCB 14]	pKd	6.54
Oc1ccc(-c2ccccc2Cl)cc1Cl [4’-OH PCB 6]	pKd	6.14
Oc1ccc(Cl)cc1-c1ccc(Cl)c(Cl)c1 [6’-OH PCB 35]	pKd	5.44
Oc1ccc(-c2cc(Cl)ccc2Cl)cc1 [4’-OH PCB 9]	pKd	5.48
Oc1ccc(-c2ccc(Cl)c(Cl)c2)cc1 [4’-OH PCB 12]	pKd	5.34
Oc1ccc(-c2ccc(Cl)c(Cl)c2)cc1Cl [4’-OH PCB 35]	pKd	5.77
Oc1ccc(-c2ccc(Cl)c(Cl)c2)c(Cl)c1 [4’-OH PCB 33]	pKd	5.62
Oc1c(Cl)cc(-c2ccccc2Cl)cc1Cl [4-OH PCB 34]	pKd	6.27
Oc1c(Cl)cc(-c2ccc(Cl)cc2Cl)cc1Cl [4’-OH PCB 68]	pKd	6.40
